Form field: melting point (one value per entry).
valueKind: melting point

inputSmiles	result
CCCc1ccc(C(=O)Nc2ccc3c(c2)CCCC3=O)cc1	168 to 170 °C
CCCc1ccc(C(=O)Nc2ccc3sc(C)nc3c2)cc1	148 to 149 °C
Cc1cnc2cc(NS(=O)(=O)c3cccc(Cl)c3C)ccc2n1	163 to 164 °C
COc1ccc(C(=O)Nc2ccc3sc(C)nc3c2Cl)cc1	182 °C
COc1cccc(C(=O)Nc2ccc(C(C)=O)cc2)c1	152 to 154 °C
COC(=O)c1cc2cc(NS(=O)(=O)c3cccc(Cl)c3C)ccc2o1	168 to 168.4 °C

###

inputSmiles	melting point
CCCc1ccc(C(=O)NCCc2cccs2)cc1	97 to 99 °C
COc1cccc(CC(=O)Nc2ccc3sc(C)nc3c2Cl)c1	147 to 148 °C
COc1ccc(CC(=O)Nc2ccc3sc(C)nc3c2Cl)cc1	173 to 174 °C
COc1ccc(C(=O)Nc2ccc3c(c2)CCCC3=O)cc1	163 to 166 °C
CCCc1ccc(C(=O)Nc2ccc(C(C)=O)cc2)cc1	174 to 176 °C
O=C(Nc1ccc2c(c1)CCC2=O)c1ccc(-c2ccccc2)cc1	217 to 219 °C
COc1cccc(C(=O)Nc2ccc3c(c2)CCCC3=O)c1	142 to 143 °C
Cc1nc2c(Cl)c(NC(=O)c3cc(Cl)cc(Cl)c3)ccc2s1	252 to 253 °C
Cc1nc2cc(NC(=O)c3cc(Cl)cc(Cl)c3)ccc2s1	194 °C
O=C(NCCc1cccs1)c1cc(Cl)ccc1Cl	99 to 100 °C
COc1ccc(C(=O)NCCc2cccs2)cc1	109 to 111 °C
COc1cccc(C(=O)Nc2ccc3c(c2)CCC3=O)c1	203 to 204 °C
